Source: PubChem BioAssay (Tox21)

- measurementDescription: qHTS assay to identify small molecule agonists of H2AX (AID 1224845)
- testSettings: CHO-K1 phospho-H2AX Ser139 HTRF, 3 h; series mostly up to 154 µM
Inconclusive results are not listed. Activity calls are given as the source filed them. Calls come from the whole dose curve; as a rule, active = well fitted activation curve with a large enough effect in the signal ratio in the repeat runs (not every such curve was filed as active); inconclusive = weak or mixed curves; inactive = flat fitted curve, though single readings scatter; the % refers to the signal ratio.
Labels: YES = active, NO = inactive

>>> df
                                   compound  qualitativelabel
0                   C=CCN(CC=C)C(=O)C(Cl)Cl                NO
1                                 CCOC(=S)S               YES
2                                  OCC(O)CO                NO
3                      O=C(O)CC[N+](=O)[O-]                NO
4  ClC1C(Cl)C(Cl)C(Cl)C(Cl)C1Cl (stereo not drawn)                NO
5                       C=CCc1ccc2c(c1)OCO2                NO
6             Nc1c(Cl)cc([N+](=O)[O-])cc1Cl                NO
7                         CC(C)c1ccc(CO)cc1                NO

* * *

- measurementDescription: Human pregnane X receptor (PXR) small molecule agonists, qHTS cell viability counter screen (AID 1346977); note: nearly all actives have a fitted effect of over 50% in size
- testSettings: PXR-Luc HepG2 viability, CellTiter-Fluor, 24 h; series mostly up to 92.4 µM
Results filed as inconclusive are left out. Calls of active or inactive are those of the source. Calls follow the shape of the dose curve; as a rule, active = well fitted cell-killing curve with a large enough effect in the repeat runs; inconclusive = weak or mixed curves, or effect the other way; inactive = flat fitted curve, though single readings scatter.
parameter: outcome

>>> df
                                   compound    result
0  C[C@]12CCC(=O)C(O)=C1CC[C@@H]1[C@@H]2CC[C@]2(C)C(=O)CC[C@@H]12  inactive
1  CCC(=O)O[C@H]1CC[C@H]2[C@@H]3CCC4=CC(=O)CC[C@]4(C)[C@H]3CC[C@]12C  inactive
2  CC(C)C(=O)OCC(C)(C)C(OC(=O)C(C)C)C(C)C (stereo unspecified)  inactive
3                         CC(C)c1ccc(CO)cc1  inactive
4                                  Nn1cnnc1  inactive
5  O=c1oc2ccccc2c(O)c1C(CC(O)c1ccc(-c2ccc(Br)cc2)cc1)c1ccccc1 (stereo unspecified)  inactive

* * *

- measurementDescription: qHTS assay to identify small molecule agonists of the AP-1 signaling pathway - cell viability counter screen (AID 1159525); note: nearly all actives have a fitted effect of over 55% in size
- testSettings: ME-180 (cervical carcinoma) AP-1-bla cells viability, ATP luminescence, 5 h; series mostly up to 76.8 µM
Results filed as inconclusive are left out. Active and inactive are the calls of the source. Calls follow the shape of the full dose curve.
Labels: active, inactive

                                    molecule  qualitativelabel
 0        COP(=S)(OC)Oc1ccc([N+](=O)[O-])cc1          inactive
 1      CCC(C)c1ccc(O)cc1 (stereo not given)          inactive
 2  C#C[C@]1(O)CC[C@H]2[C@@H]3CCC4=CC(=O)CC[C@]4(C)[C@H]3CC[C@@]21C          inactive
 3            CCC(C)(c1ccc(O)cc1)c1ccc(O)cc1          inactive
 4  CCOc1cc(Oc2ccc(C(F)(F)F)cc2Cl)ccc1[N+](=O)[O-]          inactive
 5                        Clc1nc(Cl)nc(Cl)n1          inactive
 6                                  Nn1cnnc1          inactive
 7                           NC(=S)Nc1ccccc1          inactive
 8                           COc1ccc(C=O)cc1          inactive
 9              Oc1cc(Cl)ccc1Oc1ccc(Cl)cc1Cl            active
10  Cc1ccc(OP(=O)(Oc2ccc(C)cc2)Oc2ccc(C)cc2)cc1          inactive
11             Nc1c(Cl)cc([N+](=O)[O-])cc1Cl          inactive
12                                NCc1cccnc1          inactive
13                            Nc1ccc(Cl)cc1N          inactive
14  CCOC(=O)C(C)OC(=O)c1cc(Oc2ccc(C(F)(F)F)cc2Cl)ccc1[N+](=O)[O-] (stereo not given)          inactive

* * *

- measurementDescription: A CellTox Green Cytotoxicity Assay to monitor cytotoxicity in HepG2 cells - 24 hour (AID 1224878); note: nearly all actives have a fitted effect of over 45% in size
- testSettings: CellTox Green fluorescence; series mostly up to 76.8 µM
Records with an inconclusive call do not appear. Activity calls are given as the source filed them. Calls follow the shape of the dose curve; as a rule, active = well fitted activation curve with a large enough effect in the repeat runs; inconclusive = weak or mixed curves; inactive = flat fitted curve, though single readings scatter.
Labels: True (active), False (inactive)

>>> print(df.to_string())
                                    compound  qualitativelabel
 0  COc1ccc(C(CN(C)C)C2(O)CCCCC2)cc1 (stereo not given)             False
 1        O=S(=O)(Oc1ccc(Cl)cc1)c1ccc(Cl)cc1             False
 2                                CCN(CC)N=O             False
 3                            CCCCN(CCCC)N=O             False
 4                                 Nc1cccnc1             False
 5     O=[N+]([O-])c1ccc(O)c([N+](=O)[O-])c1             False
 6  Cc1ccc(OP(=O)(Oc2ccc(C)cc2)Oc2ccc(C)cc2)cc1             False
 7                                O=Cc1ccco1             False
 8              CNC(=O)N(C)c1nnc(C(C)(C)C)s1             False
 9         CC(C)N(C(=O)SCC(Cl)=C(Cl)Cl)C(C)C             False
10                   C=CCN(CC=C)C(=O)C(Cl)Cl             False
11                      Nc1ccc(-c2ccccc2)cc1             False
12                      O=C(O)CC[N+](=O)[O-]             False
13               Nc1ccc(-c2ccc(N)c(N)c2)cc1N             False
14                       C=CCc1ccc2c(c1)OCO2             False
15                    N#Cc1cc(Br)c(O)c(Br)c1             False
16                     c1ccc(N=Nc2ccccc2)cc1             False
17                        Clc1nc(Cl)nc(Cl)n1             False
18                                N#CC(Br)Br             False
19             Nc1c(Cl)cc([N+](=O)[O-])cc1Cl             False
20  COC(=O)c1sccc1S(=O)(=O)NC(=O)Nc1nc(C)nc(OC)n1             False
21        COP(=S)(OC)Oc1ccc([N+](=O)[O-])cc1             False
22  CC1(C)C(C=C(Cl)Cl)C1C(=O)OC(C#N)c1cccc(Oc2ccccc2)c1 (stereo not given)             False
23  C#CCOS(=O)OC1CCCCC1Oc1ccc(C(C)(C)C)cc1 (stereo not given)             False
24                         CCOc1cc(C=O)ccc1O             False
25  CCOC(=O)C(C)OC(=O)c1cc(Oc2ccc(C(F)(F)F)cc2Cl)ccc1[N+](=O)[O-] (stereo not given)             False
26       O=C(Nc1ccc(Br)cc1)c1cc(Br)cc(Br)c1O              True
27                              C=CC(=O)OCCO             False
28                                  NNC(N)=S             False
29          CCOP(=S)(OCC)O/N=C(\C#N)c1ccccc1             False
